- System: OVCAR-5 ovarian
- test summary: NCI tumour cell line growth inhibition, 48 h
Listed next: entries and their corresponding GI50.
endpoint: GI50

compound	system tested	measured
Cc1nnn(C)c1-c1cnc2c3ccc(C(C)(C)O)cc3n([C@H](c3ccccc3)C3CCOCC3)c2c1	OVCAR-5 ovarian	0.0907 µM
CCOc1ccccc1/C=N\N=C(N/N=C/c1ccccc1OCC)N/N=C/c1ccccc1OCC	OVCAR-5 ovarian	2.52 µM
COc1cc2c(cc1OC)[C@@H]1C(=O)c3ccc4c(c3O[C@@H]1CO2)C[C@H](C(C)C)O4	OVCAR-5 ovarian	29.1 µM
COc1ccc(C)c2sc(N(Cc3cccnc3)C(=O)c3ccc(C#N)cc3)nc12	OVCAR-5 ovarian	47.5 µM
COc1cc2c(/C=C3\C(=O)N(C)c4ccccc43)c[nH]c2cc1C	OVCAR-5 ovarian	7.94 µM
Oc1ccc(N=Nc2ccc(Br)cc2)c(O)c1	OVCAR-5 ovarian	5.75 µM
CC[C@@]1(O)CC(OC2CC(N3CCOCC3)C(O)C(C)O2)c2c(O)c3c(c(O)c2[C@H]1O)C(=O)c1cccc(O)c1C3=O (some centres undefined)	OVCAR-5 ovarian	0.192 µM
CCOC(=O)Cc1csc(NC(=O)C(OC(=O)c2ccc(Cl)cc2)c2ccccc2)n1 (centres undefined)	OVCAR-5 ovarian	38.5 µM
O=c1[nH]c(-c2ccc(Cl)c(Cl)c2)cn1-c1ccc(Cl)cc1	OVCAR-5 ovarian	30.2 µM

---

Listed next: entries and their corresponding TGI.
- Test system: HCT-116 colon
- test summary: NCI tumour cell line growth inhibition, 48 h

line notation	unit abbrev	operator symbol	TGI
Clc1ccc(-c2cnc3c(-c4ccnc(N5CCNCC5)c4)cnn3c2)cc1	µM	=	3.09
COCN1C(=O)[C@@H]2C[C@@H](O)CN2C(=O)c2ccccc21	µM	>	100
Cc1cc(-c2nc3sc(C)cn3c2/C=N/N=C(N)N)c(C)s1	µM	=	3.37
CCn1nc(C2CCN(C(=O)CCO)CC2)nc1-c1cnc(N)c(-c2nnc(C(C)(C)C)o2)n1	µM	=	58.7
Cc1ccc(S(=O)(=O)N(CCN)c2cc3c4c(c2)Oc2cccc5c2C4c2c(cccc2O3)O5)cc1	µM	=	30.5

---

- Tested on: SF-268 CNS
- test summary: NCI tumour cell line growth inhibition, 48 h

compound	system tested	TGI
COc1cc(CSc2nc3ccc(Cl)cc3c(=O)n2Cc2ccccc2)cc(OC)c1OC	SF-268 CNS	> 100 µM
CCOc1ccc(-c2nc3ccc(-c4nc5ccc(N6CCN(C)CC6)cc5[nH]4)cc3[nH]2)cc1	SF-268 CNS	1.67 µM
Oc1ccc(N=Nc2ccc(Br)cc2)c(O)c1	SF-268 CNS	> 100 µM
CC1OC(n2cc(F)c(=O)[nH]c2=O)CCC1=O (stereo not drawn)	SF-268 CNS	> 100 µM
C[C@@H]1CC[C@@]2(C)OC(c3ccccc3)[C@H](CO)N2C1=O (stereo partly drawn)	SF-268 CNS	> 100 µM
CCN(CC)CCCNc1ccc([N+](=O)[O-])c2nc3ccccc3c(N)c12	SF-268 CNS	> 10 µM
CC(=O)OCC12CC(CC1OC(C)=O)c1ccccc12 (stereo not drawn)	SF-268 CNS	> 100 µM
CC(NNC(=O)c1ccncc1)c1ccccc1 (stereo not drawn)	SF-268 CNS	> 100 µM
